Just for reference, patent US20050130989A1 is where these values come from.

// reported IC50 for each item listed
Biological target: tubulin (Sus scrofa, UniProt P02550+P02554)
Construct: Tubulin is purified from pig brain according to published methods
Sequence (P02550 whole entry): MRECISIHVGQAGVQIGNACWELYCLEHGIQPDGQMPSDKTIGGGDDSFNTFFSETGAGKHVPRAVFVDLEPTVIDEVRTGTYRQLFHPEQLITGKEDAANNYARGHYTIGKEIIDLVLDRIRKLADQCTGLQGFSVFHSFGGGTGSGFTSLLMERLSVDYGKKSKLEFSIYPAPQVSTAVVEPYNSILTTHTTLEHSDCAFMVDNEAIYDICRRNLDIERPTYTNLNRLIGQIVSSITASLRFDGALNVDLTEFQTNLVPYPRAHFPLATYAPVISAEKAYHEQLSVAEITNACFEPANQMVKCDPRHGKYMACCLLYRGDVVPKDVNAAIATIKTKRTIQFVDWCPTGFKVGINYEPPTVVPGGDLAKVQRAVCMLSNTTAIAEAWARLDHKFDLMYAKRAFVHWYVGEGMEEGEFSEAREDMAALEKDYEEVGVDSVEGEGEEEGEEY
Sequence (P02554 whole entry): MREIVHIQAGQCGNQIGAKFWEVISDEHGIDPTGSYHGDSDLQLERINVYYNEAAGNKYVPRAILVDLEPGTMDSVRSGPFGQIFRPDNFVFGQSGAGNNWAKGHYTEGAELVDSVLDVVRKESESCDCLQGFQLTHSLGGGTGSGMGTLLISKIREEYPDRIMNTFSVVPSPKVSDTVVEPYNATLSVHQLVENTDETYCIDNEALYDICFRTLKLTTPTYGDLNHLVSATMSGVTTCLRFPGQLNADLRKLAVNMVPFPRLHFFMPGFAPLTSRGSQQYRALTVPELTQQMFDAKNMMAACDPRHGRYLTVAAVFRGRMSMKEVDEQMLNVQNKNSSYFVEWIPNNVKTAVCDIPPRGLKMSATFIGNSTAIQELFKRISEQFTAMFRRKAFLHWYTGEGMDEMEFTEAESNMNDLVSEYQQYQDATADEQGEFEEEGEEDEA
Assay: Evaluation of the inhibition of tubulin polymerization (turbidimetry)
Settings: tubulin 10 μm (1 mg/ml), 37° C., turbidity at 350 nm; concentration that inhibits the rate of polymerization by 50%; read-out: Inhibition of tubulin polymerization IC 50 (μm)

Compound Structure | IC50 (µM)
CNCCNC(=O)c1cccc(N2CCN(C(=O)c3cc(C)nn3-c3ccccc3)CC2)c1 | 12
COc1cc(OC)cc(N2CCN(C(=O)c3cc(-c4ccoc4)nn3-c3ccccc3)CC2)c1 | 1.73
Cc1cc(C(=O)N2CCN(c3cncc(O)c3)CC2)n(-c2ccccc2)n1 | 16.5
O=C(c1cc(CNc2ccccc2)nn1-c1ccccc1)N1CCN(c2cccc(Cl)c2)CC1 | 1.9
COc1ccc(Cl)cc1N1CCN(C(=O)c2cc(C)nn2-c2cccc(F)c2)CC1 | 1.5
Cc1cccc(-n2nc(C)cc2C(=O)N2CCN(c3ccc4c(c3)OCCO4)CC2)c1 | 5
Cc1cccc(-n2nc(C)cc2C(=O)N2CCN(c3ccc(C)c(C)c3)CC2)c1 | 2.9
O=C(c1cc(CSc2ccccc2)nn1-c1ccccc1)N1CCN(c2cccc(Cl)c2)CC1 | 18

###

Measure Name: melting point (°C)

Molecule | Measure Name | Reported Measurement
Cc1cc(C(=O)N2CCN(c3ccccc3[N+](=O)[O-])CC2)n(-c2ccccc2)n1 [Example E62] | melting point | 127
Cc1cc(C(=O)N2CCN(c3ccc4c(c3)OCO4)CC2)n(-c2ccccc2)n1 [Example E12] | melting point | 128
Cc1cc(C(=O)N2CCN(c3cccc(C#N)c3)CC2)n(-c2ccccc2)n1 [Example E10] | melting point | 136
Cc1cc(C(=O)N2CCN(c3cccc(Br)c3)CC2)n(-c2ccccc2)n1 [Example E6] | melting point | 138
Cc1cc(C(=O)N2CCN(c3cnccn3)CC2)n(-c2ccccc2)n1 [Example E19] | melting point | 129
CC(=O)c1cccc(N2CCN(C(=O)c3cc(C)nn3-c3ccccc3)CC2)c1 [Example E107] | melting point | 134
NC(=O)c1cccc(N2CCN(C(=O)c3cc(C(F)(F)F)nn3-c3ccccc3)CC2)c1 [Example E119] | melting point | 160
COc1cc(OC)cc(N2CCN(C(=O)c3cc(C)nn3-c3cccnc3)CC2)c1 [Example E53] | melting point | 60
COc1cc(OC)cc(N2CCN(C(=O)c3cc(C(C)C)nn3-c3ccccc3)CC2)c1 [Example E71] | melting point | 116
Cc1cc(C(=O)N2CCN(c3cccc(Cl)c3)CC2)n(-c2cccnc2)n1 [Example E52] | melting point | 124
NC(=O)c1cccc(N2CCN(C(=O)c3cc(CO)nn3-c3ccccc3)CC2)c1 [Example E134] | melting point | 216
Cc1cc(C(=O)N2CCN(c3cncc4ccccc34)CC2)n(-c2ccccc2)n1 [Example E41] | melting point | 166
Cc1cc(C(=O)N2CCN(c3cccc(OC(F)(F)F)c3)CC2)n(-c2ccccc2)n1 [Example E11] | melting point | 107
Cc1cc(C(=O)N2CC=C(c3ccccc3)CC2)n(-c2ccccc2)n1 [Example 4] | melting point | 68

###

Biological target: tubulin (Sus scrofa, UniProt P02550+P02554)
Construct: Tubulin is purified from pig brain according to published methods
Experiment: Evaluation of the inhibition of tubulin polymerization (turbidimetry)
Settings: tubulin 10 μm (1 mg/ml), 37° C., turbidity at 350 nm; concentration that inhibits the rate of polymerization by 50%; read-out: Inhibition of tubulin polymerization IC 50 (μm)
Where a name gives a salt, the structure may show the parent alone.
Measure Name: log10(IC50) (log10 of the value in µM)

Molecule | log10(IC50)
O=C(c1cccn1-c1ccccc1)N1CCN(c2cccnc2)CC1 [Example E46, hydrochloride] | 1.16
COc1cc(OC)cc(N2CCN(C(=O)c3ccnn3-c3ccccc3)CC2)c1 [Example E92] | 0.06
Cc1ccc(-n2nc(C)cc2C(=O)N2CCN(c3ccc(Cl)c(Cl)c3)CC2)cc1 [3/76] | 0.48
Cc1cc(C(=O)N2CCN(c3ccc(Br)c(Cl)c3)CC2)n(-c2ccccc2)n1 [Example E59] | 0.32
Cc1cc(C(=O)N2CCN(c3cccc(C(=O)NCCO)c3)CC2)n(-c2ccccc2)n1 [Example E40] | 0.20
Cc1cccc(-n2nc(C)cc2C(=O)N2CCN(c3cccc4ccccc34)CC2)c1 [3/32] | 0.48
O=C(c1cc(-c2cccnc2)nn1-c1ccccc1)N1CCN(c2cccc(Cl)c2)CC1 [Example E67] | 0.36
COCOCc1cc(C(=O)N2CCN(c3cccc(C(N)=O)c3)CC2)n(-c2ccccc2)n1 [Example E113] | 0.96

###

Molecular target: tubulin (Sus scrofa, UniProt P02550+P02554)
Construct: Tubulin is purified from pig brain according to published methods
Test: Evaluation of the inhibition of tubulin polymerization (turbidimetry)
Conditions: tubulin 10 μm (1 mg/ml), 37° C., turbidity at 350 nm; concentration that inhibits the rate of polymerization by 50%; read-out: Inhibition of tubulin polymerization IC 50 (μm)
pIC50: −log10 of the molar value.
Listed next: entries and their corresponding pIC50.

Compound Structure | Target Under Test | Value Relation Sign | pIC50
Cc1cccc(-n2nc(C)cc2C(=O)N2CCN(c3ccc(Cl)cc3)CC2)c1 | tubulin (Sus scrofa, UniProt P02550+P02554) | = | 4.89
COc1ccccc1N1CCN(C(=O)c2cc(C)nn2-c2ccc(F)cc2)CC1 | tubulin (Sus scrofa, UniProt P02550+P02554) | = | 4.89
O=C(c1cccn1-c1ccccc1)N1CCN(c2cccc(Cl)c2)CC1 | tubulin (Sus scrofa, UniProt P02550+P02554) | = | 5.92
COc1cc(OC)cc(N2CCN(C(=O)c3cc(C(Br)Br)nn3-c3ccccc3)CC2)c1 | tubulin (Sus scrofa, UniProt P02550+P02554) | = | 4.85
COc1cccc(-n2nc(C)cc2C(=O)N2CCN(c3cccc(Cl)c3Cl)CC2)c1 | tubulin (Sus scrofa, UniProt P02550+P02554) | > | 4.60
Cc1cc(C(=O)N2CCN(c3cnccn3)CC2)n(-c2ccccc2)n1 | tubulin (Sus scrofa, UniProt P02550+P02554) | = | 5.22
Cc1ccc(-n2nc(C)cc2C(=O)N2CCN(c3cccc(Cl)c3Cl)CC2)cc1 | tubulin (Sus scrofa, UniProt P02550+P02554) | = | 4.70
COc1cccc(-n2nc(C)cc2C(=O)N2CCN(c3ccc(Cl)c(Cl)c3)CC2)c1 | tubulin (Sus scrofa, UniProt P02550+P02554) | = | 5.46
Cc1cc(C(=O)N2CCN(c3ccccn3)CC2)n(-c2ccccc2)n1 | tubulin (Sus scrofa, UniProt P02550+P02554) | = | 4.90

###

Compound Structure | Units Of Measure | melting point
Cc1cc(C(=O)N2CCN(c3cccc(C(N)=O)c3)CC2)n(-c2ccccc2)n1 | °C | 186
COc1cc(OC)cc(N2CCN(C(=O)c3cc(C(F)(F)F)nn3-c3ccccc3)CC2)c1 | °C | 84
Cc1cc(C(=O)N2CCN(c3nccc4ccccc34)CC2)n(-c2ccccc2)n1.Cl | °C | 128
Cc1cc(C(=O)N2CCN(c3cccc(N)c3)CC2)n(-c2ccccc2)n1 | °C | 158

###

Test system: HCT116 cells
Assay: Inhibition of proliferation of the human colon tumor line HCT116 ([14C]-thymidine incorporation)
Assay type: cell-based
Conditions: Homo sapiens, HCT-116, 48 h, 48 hours at 37° C., read-out: Inhibition of HCT116 proliferation IC 50 (μm)
Protocol: The proliferation of HCT116 cells is evaluated by measuring the incorporation of [^14C]-thymidine in the following manner. […] [^14C]-thymidine (0.1 μCi/well) and the products to be evaluated are then added. […] 48 hours after incubation at 37° C., the radioactivity incorporated into the cells is measured by counting the plate in a TRI-LUX counter (Wallac). […]
Measure Name: IC50 (nM)

Compound Structure | Reported Measurement
CSc1ccccc1N1CCN(C(=O)c2cc(C)nn2-c2cccc(F)c2)CC1 | 83
Cc1cc(C(=O)N2CCN(c3cncc4ccccc34)CC2)n(-c2ccccc2)n1 | 89.4
Cc1cc(C(=O)N2CCN(c3cccc(Cl)c3Cl)CC2)n(-c2ccc(F)cc2)n1 | 562
COc1cc(OC)cc(N2CCN(C(=O)c3cc(C)nn3-c3ccccc3)CC2)c1 | 1.5
Cc1cc(C(=O)N2CCN(c3ccc(F)c(Cl)c3)CC2)n(-c2ccccc2)n1 | 6.6
Cc1ccc(-n2nc(C)cc2C(=O)N2CCN(c3cccc(C(F)(F)F)c3)CC2)cc1 | 135
Cc1cc(C(=O)N2CCN(c3cccc(Cl)c3)CC2)n(-c2nccs2)n1 | 37.7
COc1cc(OC)cc(N2CCN(C(=O)c3cc(/C=N/O)nn3-c3ccccc3)CC2)c1 | 2
